human VR1 (Homo sapiens, UniProt Q8NER1) measurements of pKi, listed per entry.
Sequence (Q8NER1 whole entry): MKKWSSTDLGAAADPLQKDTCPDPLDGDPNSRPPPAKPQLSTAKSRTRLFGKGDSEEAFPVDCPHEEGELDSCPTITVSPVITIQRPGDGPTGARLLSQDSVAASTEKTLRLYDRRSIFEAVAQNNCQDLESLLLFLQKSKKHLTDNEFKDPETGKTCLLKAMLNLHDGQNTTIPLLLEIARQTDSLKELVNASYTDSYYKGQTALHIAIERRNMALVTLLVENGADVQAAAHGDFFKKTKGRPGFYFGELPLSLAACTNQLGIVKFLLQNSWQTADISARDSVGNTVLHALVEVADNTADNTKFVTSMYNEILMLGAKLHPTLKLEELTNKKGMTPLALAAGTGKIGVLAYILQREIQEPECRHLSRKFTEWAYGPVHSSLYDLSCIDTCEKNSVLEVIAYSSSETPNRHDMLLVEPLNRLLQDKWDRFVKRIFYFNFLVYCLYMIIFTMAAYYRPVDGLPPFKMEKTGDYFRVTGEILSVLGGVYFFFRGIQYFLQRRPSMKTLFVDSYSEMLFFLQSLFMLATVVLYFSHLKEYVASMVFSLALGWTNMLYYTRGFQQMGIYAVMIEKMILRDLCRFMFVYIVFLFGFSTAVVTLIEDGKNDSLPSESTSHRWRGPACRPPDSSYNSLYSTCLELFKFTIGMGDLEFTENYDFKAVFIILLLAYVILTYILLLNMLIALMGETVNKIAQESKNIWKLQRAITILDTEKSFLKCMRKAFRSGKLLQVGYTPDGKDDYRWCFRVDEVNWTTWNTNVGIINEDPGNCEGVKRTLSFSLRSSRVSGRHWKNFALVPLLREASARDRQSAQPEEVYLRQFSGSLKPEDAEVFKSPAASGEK
pKi: −log10 of the molar value.
metricName: pKi

molecule: O=C(CCc1ccc(C(F)(F)F)cc1)Nc1ccc(-c2ccc(O)cc2)nc1
valueObserved: 7.01

molecule: CC(C)(C)c1ccc(CCC(=O)Nc2ccc(-c3cccc4[nH]ccc34)cc2)cc1
valueObserved: 6.47

molecule: Cc1cc(NC(=O)/C=C/c2ccc(N(C)C3CCCCC3)cc2)cnc1-n1cnc(Cl)c1Cl
valueObserved: 7.10

molecule: CC(C)(C)c1ccc(CCC(=O)Nc2ccc(-c3ccc(CO)cc3)c(CO)c2)cc1
valueObserved: 7.11

molecule: COc1cccc(-c2ccc(NC(=O)CCc3ccc(C(C)(C)C)cc3)cc2)c1
valueObserved: 6.07

molecule: O=C(CCc1ccc(C(F)(F)F)cc1)Nc1ccc(C2=NOS(=O)N2)c(C(F)(F)F)c1 (stereo not shown)
valueObserved: 6.01

I: Cc1cc(NC(=O)CCc2ccc(C(C)(C)C)cc2)ccc1-c1cccc(O)c1
II: CC(C)(C)c1ccc(CCC(=O)Nc2ccc(-c3cccnc3)cc2)cc1
IN: Looking only at measured pKi, which entry is lower, I or II ? Please reply using the label of the selected record.
OUT: II
(II: 6.92, I: 7.97)

---

Target: human VR1 (Homo sapiens, UniProt Q8NER1)
Construct: expressed in transfected cells; host or cells: HEK293
Assay: Human VR1 [3H]RTX binding assay
Settings: inhibition of [3H]RTX binding at 1 μM; read-out: h Binding % I (1 μM)
Description: Compounds of the present invention were tested for their ability to inhibit the binding of tritiated resiniferatoxin ([^3H] RTX) to human VR1 receptors in a [^3H] […] Data were calculated according to the equation: % inhibtion=(total binding−binding)*100/(total binding−non specific binding). Ki values were calculated based on an average of duplicate measurements using a GraphPad Prism program.
metricName: inhibition at 1 µM (%)

Some solved entries appear below for comparison.
molecule: CC(C)(C)c1ccc(CCC(=O)Nc2ccc(-c3cccc(CN)c3)cc2)cc1
tgt: human VR1 (Homo sapiens, UniProt Q8NER1)
unit: %
valueObserved: 23

molecule: CC(C)(C)c1ccc(CCC(=O)Nc2ccc(-c3ncccn3)cc2)cc1
tgt: human VR1 (Homo sapiens, UniProt Q8NER1)
unit: %
valueObserved: 68

molecule: CC(=O)Nc1cccc(-c2ccc(NC(=O)CCc3ccc(C(C)(C)C)cc3)cc2)c1
tgt: human VR1 (Homo sapiens, UniProt Q8NER1)
unit: %
valueObserved: 68

molecule: O=C(CCc1ccc(C(F)(F)F)cc1)Nc1ccc(-c2ccc(O)cc2)nc1
tgt: human VR1 (Homo sapiens, UniProt Q8NER1)
unit: %
valueObserved: 73

molecule: CC(=O)Nc1cccc(-c2ccc(NC(=O)CCc3ccc(C(C)(C)C)cc3)cc2F)c1
tgt: human VR1 (Homo sapiens, UniProt Q8NER1)
unit: %
valueObserved: 66

1: O=C(CCc1ccc(C(F)(F)F)cc1)Nc1ccc(-c2ccc(O)cc2)cc1
2: CC(C)(C)c1ccc(CCC(=O)Nc2ccccc2-c2ccccn2)cc1
3: CC(C)(C)c1ccc(CCC(=O)Nc2ccc(-c3cccc(NCCO)c3)cc2)cc1
IN: Hi! Can you put these in order of inhibition at 1 µM, lowest number first? Please list each label once, in the requested order.
OUT: 2, 3, 1
(2: 16%, 3: 34%, 1: 56%)

---

molecular target: human VR1 (Homo sapiens, UniProt Q8NER1); construct: expressed in transfected cells; host or cells: HEK293; experiment: Human VR1 [3H]RTX binding assay; conditions: inhibition of [3H]RTX binding at 1 μM
metricName: h Binding % I (1 μM) (%)

Some solved entries appear below for comparison.
molecule: NC(=O)c1cccc(-c2ccc(NC(=O)CCc3ccc(C(F)(F)F)cc3)c3ccccc23)c1
h Binding % I (1 μM) [%]: 1

molecule: CC(C)(C)c1ccc(CCC(=O)Nc2ccc(-c3cccc(C(N)=O)c3)nc2)cc1
h Binding % I (1 μM) [%]: 16

I: CC(C)(C)c1ccc(CCC(=O)Nc2ncc(-c3cccc(C(N)=O)c3)cn2)cc1
II: CC(C)(C)c1ccc(CCC(=O)Nc2ccc(-c3cnco3)cc2)cc1
III: CC(C)(C)c1ccc(CCC(=O)Nc2ccc(-c3ccccc3O)cc2)cc1
IN: Hi! Can you put these in order of h Binding % I (1 μM), lowest number first? Please list each label once, in the requested order.
OUT: I, II, III
(I: 1%, II: 49%, III: 89%)

A: CC(=O)Nc1cccc(-c2ccc(NC(=O)CCc3ccc(C(C)(C)C)cc3)cc2C(=O)O)c1
B: Cc1cc(-c2cccc(O)c2)ccc1NC(=O)CCc1ccc(C(C)(C)C)cc1
C: CC(C)(C)c1ccc(CCC(=O)Nc2ccc(-c3nn[nH]n3)cc2)cc1
D: CC(C)(C)c1ccc(CCC(=O)Nc2ccc(-c3cccc(CO)c3)nc2)cc1
E: O=C(CCc1ccc(C(F)(F)F)cc1)Nc1ccc(-c2ccccc2O)nc1
IN: Please list these compounds in decreasing order of h Binding % I (1 μM). Please list each label once, in the requested order.
OUT: B, D, E, C, A
(B: 43%, D: 25%, E: 8%, C: 3%, A: 1%)

I: CC(C)(C)c1ccc(CCC(=O)Nc2ccc(-c3cccc(O)c3)cc2C(=O)O)cc1
II: CC(C)(C)c1ccc(CCC(=O)Nc2ccc(-c3cccc(F)c3)cc2)cc1
IN: Looking only at measured h Binding % I (1 μM), which entry is lower, I or II ? Please reply using the label of the selected record.
OUT: I

---

molecular target: human VR1 (Homo sapiens); construct: expressed in transfected cells; host or cells: HEK293; test: Human VR1 functional assay (FLIPR intracellular Ca2+); assay type: cell-based; conditions: agonist response, 12 μM; read-out: % Response Relative to EC80 of Capsaicin (12 μM)
Structures can show the parent of a compound that is named as a salt.
metricName: Emax at 12 µM (%)

Some solved entries appear below for comparison.
compound: CC(C)(C)c1ccc(CCC(=O)Nc2ccc(-c3cccc(C(=O)O)c3)cc2)cc1
tgt: human VR1 (Homo sapiens)
unit: %
valueObserved: 94

compound: CC(C)(C)c1ccc(/C=C/C(=O)Nc2ccc(-c3cccc(C(N)=O)c3)cc2)cc1
tgt: human VR1 (Homo sapiens)
unit: %
valueObserved: 53

P: CC(C)(C)c1ccc(CCC(=O)Nc2ccc(-c3cccc(O)c3)c(F)c2)cc1
Q: CC(C)(C)c1ccc(CCC(=O)Nc2ccccc2-c2ccccn2)cc1
R: CC(C)(C)c1ccc(CCC(=O)Nc2cccc(-c3ccccn3)c2)cc1 [Cpd 109, hydrochloride]
IN: Please list these compounds in decreasing order of Emax at 12 µM. Please list each label once, in the requested order.
OUT: Q, P, R
(Q: 98%, P: 68%, R: 47%)

---

target: human VR1 (Homo sapiens); construct: expressed in transfected cells; host or cells: HEK293; test: Human VR1 functional assay (FLIPR intracellular Ca2+); type: cell-based; details: inhibition of capsaicin response, 1 μM; read-out: h % I (1 μM)
metricName: inhibition at 1 µM (%)

Some solved entries appear below for comparison.
molecule: CC(C)(C)c1ccc(CCC(=O)Nc2ccc(-c3ccccc3O)c(CO)c2)cc1
inhibition at 1 µM [%]: 84

molecule: O=C(CCc1ccc(SC(F)(F)F)cc1)Nc1ccc(-n2cnc(Cl)c2Cl)c(C(F)(F)F)c1
inhibition at 1 µM [%]: 88

molecule: O=C(CCc1ccc(C(F)(F)F)cc1)Nc1ccc(-n2cnc(C(F)(F)F)c2)c(C(F)(F)F)c1
inhibition at 1 µM [%]: 100

molecule: O=C(CCc1ccc(F)cc1)Nc1ccc(-n2cnc(Cl)c2Cl)c(C(F)(F)F)c1
inhibition at 1 µM [%]: 92

molecule: Cc1cn(-c2ccc(NC(=O)/C=C/c3ccc(SC(F)(F)F)cc3)cc2C(F)(F)F)cn1
inhibition at 1 µM [%]: 100

I: CC(C)(C)c1ccc(CCC(=O)Nc2ccc(-c3ccc(O)cc3)c(F)c2)cc1
II: O=C(CCc1ccc(C(F)(F)F)cc1)Nc1ccc(-c2noc(C(F)(F)F)n2)c(C(F)(F)F)c1
III: Cc1cn(-c2ccc(NC(=O)/C=C/c3ccc(C(F)(F)F)cn3)cc2C(F)(F)F)cn1
IN: Hi! Can you put these in order of inhibition at 1 µM, lowest number first? Please list each label once, in the requested order.
OUT: II, III, I

---

pKi: −log10 of the molar value.
human VR1 (Homo sapiens, UniProt Q8NER1) measurements of pKi, listed per entry.
metricName: pKi

Some solved entries appear below for comparison.
molecule: O=C(CCc1ccc(C(F)(F)F)cc1)Nc1ccc(-c2ccc(CO)cc2)cc1 [Cpd 80]
pKi: 6.57
--
molecule: CC(C)(C)c1ccc(CCC(=O)Nc2ccc(-c3cccc(O)c3)cc2F)cc1 [Cpd 60]
pKi: 6.27
--
molecule: O=C(CCc1ccc(C(F)(F)F)cc1)Nc1cnc(-c2ccc(O)cc2)c(C(F)(F)F)c1 [Cpd 221]
pKi: 7.24

A: CC(C)(C)c1ccc(CCC(=O)Nc2ccc(-n3cnc(Cl)c3Cl)cc2)cc1 [Cpd 211]
B: CC(=O)Nc1cccc(-c2ncc(NC(=O)CCc3ccc(C(C)(C)C)cc3)cc2C)c1 [Cpd 216]
IN: A or B : whose pKi is greater? Please reply using the label of the selected record.
OUT: A

A: O=C(CCc1ccc(C(F)(F)F)cc1)Nc1ccc(-n2cnc(Cl)c2Cl)c(C(F)(F)F)c1 [Cpd 218]
B: Cc1cn(-c2ccc(NC(=O)/C=C/c3ccc(C(F)(F)F)cn3)cc2C(F)(F)F)cn1 [Cpd 277]
IN: A or B : whose pKi is greater? Please reply using the label of the selected record.
OUT: A
(A: 7.70, B: 6.85)
